# study_target: Progesterone receptor (Homo sapiens)
# test_details: qHTS assay to identify small molecule antagonists of the progesterone receptor (PR) signaling pathway (AID 1346795); also: % is scaled to controls: 0 for no effect and ±100 for the full control effect
# experimental_context: PR-UAS-bla HEK293T, beta-lactamase FRET ratio, 16 h; series mostly up to 92.4 µM
Results filed as inconclusive are left out. Activity calls are given as the source filed them. Calls follow the shape of the dose curve; as a rule, active = well fitted inhibition curve with a large enough effect in the signal ratio in the repeat runs (not every such curve was filed as active); inconclusive = weak or mixed curves; inactive = flat fitted curve, though single readings scatter; the % refers to the signal ratio.
Can you tell me activity change, negative = inhibition for the items I'm about to list?

Record `CCCCCCCCCCCCCCCCCO` : what is its activity change, negative = inhibition with Progesterone receptor (Homo sapiens)? 1.26% [at 18.9 µM] (inactive)

Provide value of activity change, negative = inhibition for this record tested with Progesterone receptor (Homo sapiens): `O=C=NCc1cccc(CN=C=O)c1` 0.417% [at 18.9 µM] (inactive)

What is its activity change, negative = inhibition for Progesterone receptor (Homo sapiens)? Entry: `O=S(=O)(O)c1cc(S(=O)(=O)O)c2ccc3c(S(=O)(=O)O)cc(S(=O)(=O)O)c4ccc1c2c43` 5.54% [at 18.9 µM] (inactive)

Recorded activity change, negative = inhibition for CCC(=O)CC(C)CC (centres undefined) with Progesterone receptor (Homo sapiens), please? 2.97% [at 0.348 µM] (inactive)

###

# test_details: A CellTox Green Cytotoxicity Assay to monitor cytotoxicity in HepG2 cells - 16 hour (AID 1224876); also: nearly all actives have a fitted effect of over 45% in size
# experimental_context: CellTox Green fluorescence; series mostly up to 76.8 µM
Records with an inconclusive call do not appear. Activity calls are given as the source filed them. Calls come from the whole dose curve; as a rule, active = well fitted activation curve with a large enough effect in the repeat runs; inconclusive = weak or mixed curves; inactive = flat fitted curve, though single readings scatter.
Hi there, use one of these labels in your reply, thanks! YES (active), NO (inactive)

Fill in: this test's call for CCC(C)c1cc([N+](=O)[O-])cc([N+](=O)[O-])c1OC(=O)OC(C)C (stereo not given) is ___ NO

// outcome(item) with item = `NC(=O)C(=O)N/N=C/c1ccc([N+](=O)[O-])o1` NO

Hello, I am checking results. What call was entered for `O=C1NCN(c2ccccc2)C12CCN(CCCC(c1ccc(F)cc1)c1ccc(F)cc1)CC2` ? YES

Look up the recorded call for `C[Si](C)(C)Cl` in this test. NO

Write down the call the test reported for this compound. Item: `CCN(CC)c1cccc(C)c1` NO

Hello, I am checking results. What call was entered for CCC(C)C(=O)OC (stereo not given) ? NO

# outcome recorded in this test, key = `C(=C/c1ccccc1)/c1ccccc1` NO

So what was the verdict on `C=CC(=O)OCCOCC(CC)(COCCOC(=O)C=C)COCCOC(=O)C=C` in this test? NO

Short answer needed: outcome of this test for `C[C@]12CC[C@H]3C(=CCc4cc(O)ccc43)[C@@H]1CCC2=O` ? NO

Could you kindly confirm the outcome this assay logged for `CC(C)CCOCCC(C)C` ? NO

Which outcome was assigned to `C=C(C)C(=O)OCCC[Si](Cl)(Cl)Cl` in this test? NO

Write down the call the test reported for this compound. Item: `CCCCCCCOC(=O)c1ccccc1C(=O)OCCCCCCC` NO

Would you mind telling me which call this test gave `CCc1cccc(CC)c1NC(=O)C(=O)O` ? NO

Would you mind telling me which call this test gave C#CC(O)CCC (stereo not given) ? NO

Which outcome did this test record for the compound `CC(C)(c1cc(Br)c(O)c(Br)c1)c1cc(Br)c(O)c(Br)c1` ? NO

Just curious, what result did `CCOC(=O)C1=C(C)NC(C)=C(C(=O)OCC)C1c1ccccc1/C=C/C(=O)OC(C)(C)C` get here? NO

Assay result, entry `CCCCNc1c(C(=O)OCC)c(C)nc2c1cnn2CC` — outcome? NO

Can you look up the reported call for `Cc1cc(Nc2ccc(O)cc2)ccc1N` for me? NO

Test call for this compound, please: `N#CSCSc1nc2ccccc2s1` YES

GET /call?item= `O=C1OC(=O)c2cccc3cccc1c23` returns the recorded outcome of this test. NO

What classification did `NC(=O)c1ccccc1N` end up with in this test? NO

Outcome logged for `CC(=O)Oc1ccc(C2(c3ccc(OC(C)=O)cc3)C(=O)Nc3ccccc32)cc1` in this assay: NO

Status in this test for `CCCCCCCC(OC)OC` ? NO

Call for entry `C=C[C@](C)(O)CC[C@@H]1[C@@]2(C)CCCC(C)(C)[C@@H]2CC[C@@]1(C)O` : YES

Which outcome did this test record for the compound `CCCCCCCCCCCCN(CCO)CCO` ? YES

For CN1[C@@H]2CC[C@@H]1CC(OC(=O)C(CO)c1ccccc1)C2 (stereo not given in full) , which call appears in the assay record? NO

Hey, what did the test say about `O=C(O)Cc1ccc(OCCNC[C@H](O)c2ccccc2)cc1` ? NO

Hello, I am checking results. What call was entered for `C/C=C/C=N/NC(=O)c1ccncc1` ? NO

Could you please tell me the result logged for `O=C(c1ccccc1)c1cc(Cl)ccc1O` in this assay? NO

Status in this test for `O=C(O)CCCCCCC(=O)O` ? NO

What was the test verdict on `OCCCc1cccnc1` ? NO

Answer briefly: the call reported for `OCCCS` in this assay. NO

I'd appreciate the recorded outcome for `Nc1cc(Cl)c([N+](=O)[O-])cc1O` from this test. NO

Check the results log: what was the call for `[O]=[Zr]` ? NO

Look up the recorded call for CCCCCCC(C)Nc1ccc(Nc2ccccc2)cc1 (stereo not given) in this test. NO

What is the recorded call for this compound in the test? `CCN(CC)CCNc1ccc(CO)c2sc3ccccc3c(=O)c12` YES

Recorded test outcome, item `O=C(O)c1cccc(Cl)n1` NO

Can you look up the reported call for `COc1cccc(OC)c1O` for me? NO

For this compound, state the assay outcome: `CCCCCCCCCCCC(=O)N(CC)CC` NO

What was the test verdict on `O=S(=O)(O)CCCN1CCOCC1` ? NO

Lab log entry: `C=C(c1ccc(C(=O)O)cc1)c1cc2c(cc1C)C(C)(C)CCC2(C)C` — outcome as called in the assay? YES

Outcome? `CC(C)(C)C1=CC(=O)C=C(C(C)(C)C)C1=O` NO

Status in this test for `Clc1cc(Cl)c(-c2c(Cl)c(Cl)cc(Cl)c2Cl)cc1Cl` ? NO

Dear colleague, could you share the recorded outcome for `COc1ccc(C#N)cc1` when you have a moment? NO

Just curious, what result did `O=C(Nc1ccc(Cl)cc1)Nc1ccc(Cl)c(C(F)(F)F)c1` get here? NO

Given `Cc1cc2c(C(C)C)c(O)c(O)c(C=O)c2c(O)c1-c1c(C)cc2c(C(C)C)c(O)c(O)c(C=O)c2c1O` , state the outcome it received in this test. NO

// return assay outcome for `Oc1ccc(-c2ccc(O)cc2)cc1` NO

Would you mind telling me which call this test gave `CCc1c(C(=O)O)c(=O)cnn1-c1ccc(Cl)cc1` ? NO

// outcome(item) with item = `CCCCOc1ccc(C(=O)CCN2CCCCC2)cc1` YES

Record lookup: outcome of this test for `CCCCCCCCCC(=O)N(C)C` ? NO

For `NCCCCCCNCCCCCCN` , which call appears in the assay record? NO

Hi team, can someone confirm the assay call for `COc1cccc(O)c1` ? NO

Please share the test call associated with `Oc1ccc(-c2ccccc2)c(Cl)c1` . YES

Given C[n+]1c2cc(N)ccc2cc2ccc(N)cc21 (tested in a mixture with another compound) , state the outcome it received in this test. YES

Given `CN1CN(C)CN(C)C1` , state the outcome it received in this test. NO

###

# test_details: A CellTox Green Cytotoxicity Assay to monitor cytotoxicity in HepG2 cells - 40 hour (AID 1224879); also: nearly all actives have a fitted effect of over 40% in size
# experimental_context: CellTox Green fluorescence; series mostly up to 76.8 µM
Results filed as inconclusive are left out. The source made the active and inactive calls. The call rests on the fitted dose curve; in most records, active means well fitted activation curve with a large enough effect in the repeat runs; inconclusive means weak or mixed curves; inactive means flat fitted curve, though single readings scatter.
Would you mind answering with one of these outcomes? YES = active, NO = inactive

Entry `C=C(C)CCCC` : call = ? NO

# fetch the recorded call for `OCCCc1cccnc1` here NO

State the result this test recorded for `CCCOc1sc(C(=O)N2CCC(c3cc(CN)ccc3F)CC2)c(C)c1Br` . YES

# lookup: test call for `Cc1cccc(N(C)C)c1` NO

Field: outcome | Entry: `CCCCCCCCC(C)=O` NO

For this compound, state the assay outcome: CCCCN(CCCC)CCC(O)c1cc2c(Cl)cc(Cl)cc2c2cc(C(F)(F)F)ccc12 (stereo unspecified) YES

What was the test verdict on `O=c1cccc[nH]1` ? NO

Lab log entry: CCOC(=O)CC(C)O (stereo unspecified) — outcome as called in the assay? NO

For this compound, state the assay outcome: `CC(C)CCOCCC(C)C` NO

Which outcome did this test record for the compound `Nc1cc(Cl)c([N+](=O)[O-])cc1O` ? NO

What did this assay record as the result for `Clc1ccccc1CN1CCc2sccc2C1` ? NO

Identify the outcome logged in this assay for the compound shown: `CC1=CCC(=O)O1` NO

Please indicate how the test categorized `CCCC(=O)OCC(COC(=O)CCC)OC(=O)CCC` . NO

// outcome(item) with item = `COCC(=O)O[C@]1(CCN(C)CCCc2nc3ccccc3[nH]2)CCc2cc(F)ccc2[C@@H]1C(C)C` YES

Name the outcome recorded for CO[Si](CCC1CCC2OC2C1)(OC)OC (stereo unspecified) in the assay. NO

Could you kindly confirm the outcome this assay logged for `CCCCCCS` ? NO

Record lookup: outcome of this test for `O=C1OC(=O)c2ccc3c4c(ccc1c24)C(=O)OC3=O` ? NO

Please indicate how the test categorized `CC(C)=C1CC[C@@H](C)CC1=O` . NO

// param item: `CC(C)c1ccc(O)c(C(C)C)c1` ; yields the recorded call YES

Could you please tell me the result logged for `CN(C)CCN1CCOCC1` in this assay? NO

// return assay outcome for `CCCCCCCCCCCCCCCC` NO

Returns: the outcome recorded for CC(C(O)c1ccccc1)N(C)CCOC(c1ccccc1)c1ccccc1 (stereo unspecified) in this assay. YES

Hi, sorry to bother you, what did the test record for `CC1(C)C(=O)N(Br)C(=O)N1Br` ? NO

Hi, do you know how `C=CC(=O)OCCOCC(CC)(COCCOC(=O)C=C)COCCOC(=O)C=C` came out in this test? YES

Fill in: this test's call for `NC(=O)c1ccccc1N` is ___ NO

Would you mind telling me which call this test gave `O=C(O)CCCCCCC(=O)O` ? NO

Which outcome was assigned to `N#CSCSc1nc2ccccc2s1` in this test? YES

Tell me the recorded outcome of this test for `CCOC(=O)COc1ccc(C)cc1` . NO

I would be grateful if you could indicate the recorded call for `CO[C@H]1C=CO[C@@]2(C)Oc3c(C)c(O)c4c(O)c(cc(O)c4c3C2=O)NC(=O)/C(C)=C\C=C/[C@H](C)[C@H](O)[C@@H](C)[C@@H](O)[C@@H](C)[C@H](OC(C)=O)[C@@H]1C` . NO

Could you kindly confirm the outcome this assay logged for O=C1NC2CCCCN2C12CCN(CCCN1c3ccccc3CCc3ccc(Cl)cc31)CC2 (stereo unspecified) ? YES

Status in this test for `O[C@@H](c1cc(C(F)(F)F)nc2c(C(F)(F)F)cccc12)[C@H]1CCCCN1` ? YES

Please state the recorded outcome for this compound: `SCCCCCCCCS` YES

Dear all, I need the recorded test outcome for `O=C(O)CCn1c2c(c3ccccc31)C[C@H](NS(=O)(=O)c1ccc(F)cc1)CC2` , thank you. NO

Could you check what this test reported for CN1[C@@H]2CC[C@@H]1CC(OC(=O)C(CO)c1ccccc1)C2 (stereo partly specified) ? NO

State the result this test recorded for `CCCCCCOc1cc(C)c(O)c(C)c1C` . YES

Recorded test call requested for `Nc1ncnc2c1ncn2[C@@H]1O[C@H](COP(=O)(O)O)[C@@H](O)[C@H]1O` NO

Kindly provide the recorded test outcome for the following compound: `CNCC[C@H](Oc1cccc2ccccc12)c1cccs1` YES

Please let me know the test result on file for `O=C1c2c(O)ccc([N+](=O)[O-])c2C(=O)c2c([N+](=O)[O-])ccc(O)c21` . NO

Field: outcome | Entry: `CC1(C)COCN1` NO

Record lookup: outcome of this test for `CCO[Si](CCCSSSSCCC[Si](OCC)(OCC)OCC)(OCC)OCC` ? NO

Tell me the recorded outcome of this test for `CC(C)OC(=O)c1cc(C(=O)OC(C)C)cc([N+](=O)[O-])c1` . NO

What call does the record list for `Cc1cn[nH]c1` ? NO

Would you mind telling me which call this test gave `CCCCOCC` ? NO

For `CCOC(/C=C(\C)CCC=C(C)C)OCC` , what call appears in the results of this test? NO

Which result was noted for this compound in the test: `CCc1cccc(CC)c1NC(=O)C(=O)O` NO

Short answer needed: outcome of this test for `OCCCCl` ? NO

Test call, this compound: CCCCOC(=O)C(C)CC (stereo unspecified) NO

Test call for this compound, please: `CCc1cccc(CC)c1N(COC)C(=O)CS(=O)(=O)O` NO

Recorded test outcome, item `CCc1cccc(C)c1` NO

// outcome(item) with item = CC(C)=CCCC(C)O (stereo unspecified) NO

State the result this test recorded for C=C1C(C)(C)[C@@]2(Cl)C(Cl)[C@]1(Cl)C(Cl)(Cl)C2(Cl)Cl (stereo partly specified) . YES
